Origin of values: patent US20250163183A1

Target: T1, human protein C (PC) zymogen (human, UniProt P04070 43-197; P04070 200-461)
T1 construct: Bought
T1 sequence (P04070 43-197, chain 1 of 2): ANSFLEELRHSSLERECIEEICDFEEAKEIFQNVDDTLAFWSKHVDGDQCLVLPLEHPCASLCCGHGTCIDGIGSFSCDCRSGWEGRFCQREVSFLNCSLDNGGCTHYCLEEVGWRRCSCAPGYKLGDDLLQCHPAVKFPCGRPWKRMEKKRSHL
T1 sequence (P04070 200-461, chain 2 of 2): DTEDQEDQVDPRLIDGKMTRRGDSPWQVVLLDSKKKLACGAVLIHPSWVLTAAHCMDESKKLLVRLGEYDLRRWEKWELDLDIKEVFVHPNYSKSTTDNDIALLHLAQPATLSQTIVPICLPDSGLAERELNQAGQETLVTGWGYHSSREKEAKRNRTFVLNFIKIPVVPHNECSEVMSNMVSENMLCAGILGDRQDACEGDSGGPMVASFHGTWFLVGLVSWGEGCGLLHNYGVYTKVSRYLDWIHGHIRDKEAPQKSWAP
Assay: ELISA screen, PC-coated wells, OD450, n=2
assay.metric: binding result

SR16983-R3-P3-A08 (VHH) VHH: EVQLVESGGGLVQAGGSLRLSCAASGRTFVGTYVMGWFRQAPGKAREFVAASSRSTGNTVYLDSVKGRFTVSRDDAKNTLYLQMNSLKPEDTAVYYCAARASINYNAANWPYWGQGTQVTVSS
no binding
SR16983-R4-P1-C05 (VHH) VHH: QLQLVESGGGLVQAGGSLRLSCAASGRTFGSYVMGWFRQAPGKERAFVGAASRSTGTTVYLDSVKGRFTISRDDAKNTLYLQMNSLKPEDTAVYYCAARASINYNYANWPYWGQGTQVTVSS
no binding
